- protocol: Tolerability in Sprague-Dawley rats: hematology assays (Example 35)
- recorded conditions: 50 mg/kg s.c. twice per week for 6 weeks, title says % control

substance	HCT
ISIS 417002: MOE gapmer, nucleobases 1275 to 1318 of SEQ ID NO: 1 (Table 8) (antisense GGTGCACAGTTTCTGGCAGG; MOE gapmer, wing and gap sizes not given here)	7%
ISIS 416864: MOE gapmer, nucleobases 1275 to 1318 of SEQ ID NO: 1 (Table 8) (antisense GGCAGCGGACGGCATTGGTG; MOE gapmer, wing and gap sizes not given here)	2%
ISIS 416858: MOE gapmer, nucleobases 1275 to 1318 of SEQ ID NO: 1 (Table 8) (antisense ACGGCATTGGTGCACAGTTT; MOE gapmer, wing and gap sizes not given here)	3%
ISIS 416850: MOE gapmer, nucleobases 1275 to 1318 of SEQ ID NO: 1 (Table 8) (antisense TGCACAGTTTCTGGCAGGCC; MOE gapmer, wing and gap sizes not given here)	5%
ISIS 416838: MOE gapmer, nucleobases 1018 to 1042 of SEQ ID NO: 1 (Table 6) (antisense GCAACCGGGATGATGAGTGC; MOE gapmer, wing and gap sizes not given here)	5%
